tgt: SHP2 protein (Homo sapiens)
procedure.details: Measurement of SHP2 protein degradation in MV-4-11 cells (western blotting)
Assay type: cell-based
Parameters: endogenous in cells
test.settings: 0.01 μM, harvested after 24 hours
metric.name: SHP2% degradation (%)

Record excerpt, results attached:
- molecule: "CC(=O)N[C@H](C(=O)N1C[C@H](O)C[C@H]1C(=O)NCc1ccc(-c2scnc2C)cc1O[C@H]1CC[C@H](C(=O)N2CCC(Nc3nccc(Sc4cnc(N5CCC(C)(CN)CC5)cn4)c3Cl)CC2)CC1)C(C)(C)C [Example 41]"
  SHP2% degradation [%]: 98.2
- molecule: "Cc1ncsc1-c1ccc(CNC(=O)[C@@H]2C[C@@H](O)CN2C(=O)[C@@H](NC(=O)C2(F)CC2)C(C)(C)C)c(OCCC2CCN(C(=O)C3CN(c4nccc(Sc5cnc(N6CCC(C)(CN)CC6)cn5)c4Cl)C3)CC2)c1 [Example 55]"
  SHP2% degradation [%]: 27.5
- molecule: "Cc1ncsc1-c1ccc(CNC(=O)[C@@H]2C[C@@H](O)CN2C(=O)[C@@H](NC(=O)C2(F)CC2)C(C)(C)C)c(OCCN2CCN(C(=O)C3CCN(c4nccc(Sc5cnc(N6CCC(C)(CN)CC6)cn5)c4Cl)CC3)CC2)c1 [Example 54]"
  SHP2% degradation [%]: 69.4
- molecule: "Cc1ncsc1-c1ccc(CNC(=O)[C@@H]2C[C@@H](O)CN2C(=O)[C@@H](NC(=O)C2(F)CC2)C(C)(C)C)c(OC2CCN(C(=O)C3(C)CCN(c4nccc(Sc5cnc(N6CCC(C)(CN)CC6)cn5)c4Cl)CC3)CC2)c1 [Example 68]"
  SHP2% degradation [%]: "−22.1"
- molecule: "Cc1ncsc1-c1ccc(CNC(=O)[C@@H]2C[C@@H](O)CN2C(=O)[C@@H](NC(=O)C2(F)CC2)C(C)(C)C)c(O[C@H]2CC[C@H](C(=O)N3CCC(Nc4nccc(Sc5cnc(N6CCC(C)(N)CC6)cn5)c4Cl)CC3)CC2)c1 [Example 24]"
  SHP2% degradation [%]: 83.1
- molecule: "Cc1ncsc1-c1ccc(CNC(=O)[C@@H]2C[C@@H](O)CN2C(=O)[C@@H](NC(=O)C2(F)CC2)C(C)(C)C)c(O[C@H]2CC[C@H](C(=O)N3CCN(c4nccc(Sc5cnc(N6CCC(C)(CN)CC6)cn5)c4Cl)CC3)CC2)c1 [Example 26]"
  SHP2% degradation [%]: 52.3
- molecule: "CC(=O)N[C@H](C(=O)N1C[C@H](O)C[C@H]1C(=O)NCc1ccc(-c2scnc2C)cc1O[C@H]1CC[C@H](C(=O)N2CC(Nc3nccc(Sc4cnc(N5CCC(C)(CN)CC5)cn4)c3Cl)C2)CC1)C(C)(C)C [Example 38]"
  SHP2% degradation [%]: 97.7
- molecule: "Cc1ncsc1-c1ccc(CNC(=O)[C@@H]2C[C@@H](O)CN2C(=O)[C@@H](NC(=O)C2(F)CC2)C(C)(C)C)c(O[C@H]2CC[C@H](C(=O)N3CC(Nc4cccc(Sc5cnc(N6CCC7(CC6)Cc6ccccc6[C@H]7N)cn5)c4Cl)C3)CC2)c1 [Example 14]"
  SHP2% degradation [%]: 1.2

1 = Cc1ncsc1-c1ccc(CNC(=O)[C@@H]2C[C@@H](O)CN2C(=O)[C@@H](NC(=O)C2(F)CC2)C(C)(C)C)c(OCC2CCN(C(=O)C3CCN(c4nccc(Sc5cnc(N6CCC(C)(CN)CC6)cn5)c4Cl)CC3)CC2)c1 [Example 58]
2 = Cc1ncsc1-c1ccc(CNC(=O)[C@@H]2C[C@@H](O)CN2C(=O)[C@@H](NC(=O)C2(F)CC2)C(C)(C)C)c(OCCN2CCN(CCNc3cccc(Sc4cnc(N5CCC(C)(CN)CC5)cn4)c3Cl)C(=O)C2)c1 [Example 3]
Which value of SHP2% degradation is greater, the one for 1 or the one for 2 ? Refer to your chosen entry by its label in the reply.
1
(1: 82.0%, 2: 19%)

###

tgt: SHP2 protein (Homo sapiens)
Sequence (Q06124 1-593): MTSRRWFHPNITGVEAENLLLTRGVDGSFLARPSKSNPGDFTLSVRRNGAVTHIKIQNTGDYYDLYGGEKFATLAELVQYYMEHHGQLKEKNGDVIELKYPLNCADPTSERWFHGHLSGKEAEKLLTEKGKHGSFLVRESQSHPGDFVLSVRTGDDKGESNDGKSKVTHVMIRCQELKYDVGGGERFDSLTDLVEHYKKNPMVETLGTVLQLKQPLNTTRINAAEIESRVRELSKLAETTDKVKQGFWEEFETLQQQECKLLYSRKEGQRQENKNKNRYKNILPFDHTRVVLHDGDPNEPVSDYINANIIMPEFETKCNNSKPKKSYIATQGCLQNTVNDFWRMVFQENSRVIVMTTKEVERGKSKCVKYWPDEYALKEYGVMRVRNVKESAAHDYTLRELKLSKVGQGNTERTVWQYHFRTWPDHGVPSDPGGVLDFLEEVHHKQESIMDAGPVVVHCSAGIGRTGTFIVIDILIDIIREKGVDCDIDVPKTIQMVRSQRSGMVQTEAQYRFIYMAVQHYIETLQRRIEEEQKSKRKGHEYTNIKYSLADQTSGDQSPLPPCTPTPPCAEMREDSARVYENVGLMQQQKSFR
procedure.details: Measurement of SHP2 protein degradation in NCI-H358 cells (western blotting)
Format: cell-based
Design: endogenous in cells; host or cells: NCI-H358
test.settings: 0.1 μM, harvested after 24 hours
Method: H358 cells were treated with the synthesized Example compounds, and the amount of SHP2 protein present in the cells was measured using western blotting detection. The protocol for the experiment using H358 cells is as follows. […] [Cell lysis and sample preparation] […] After shaking for 10 seconds with a SYNERGY H1 microplate reader from BioTek, the absorbance was measured at 562 nm. The protein was quantified using the measured value to make a sample, which was then incubated at 70° C. for 10 minutes. […]
metric.name: SHP2% degradation (%)

- molecule: "Cc1cn([C@H](C(=O)N2C[C@H](O)C[C@H]2C(=O)NCc2ccccc2OC2CCN(C(=O)C3CCN(c4nccc(Sc5cnc(N6CCC7(CC6)CO[C@@H](C)[C@H]7N)c(CO)n5)c4Cl)CC3)CC2)C(C)C)nn1"
  SHP2% degradation / %: 99.9
- molecule: "CC(=O)N[C@H](C(=O)N1C[C@H](O)C[C@H]1C(=O)NCc1ccc(-c2scnc2C)cc1O[C@H]1CC[C@H](C(=O)N2CCC(c3cccc(Sc4cnc(N5CCC(C)(CN)CC5)cn4)c3Cl)CC2)CC1)C(C)(C)C"
  SHP2% degradation / %: 93.2
- molecule: "CC(=O)N[C@H](C(=O)N1C[C@H](O)C[C@H]1C(=O)NCc1ccc(-c2scnc2C)cc1O[C@H]1CC[C@H](C(=O)N2CC(N3CCc4c(Sc5cnc(N6CCC7(CC6)CO[C@@H](C)[C@H]7N)cn5)cccc43)C2)CC1)C(C)(C)C"
  SHP2% degradation / %: 98.5
- molecule: "CC(=O)N[C@H](C(=O)N1C[C@H](O)C[C@H]1C(=O)NCc1ccc(-c2scnc2C)cc1O[C@H]1CC[C@H](C(=O)N2CCC(N3CCc4c(Sc5cnc(N6CCC7(CC6)CO[C@@H](C)[C@H]7N)cn5)cccc43)CC2)CC1)C(C)(C)C"
  SHP2% degradation / %: 99.1
- molecule: "Cc1cc(C(C(=O)N2C[C@H](O)C[C@H]2C(=O)NCc2ccc(-c3scnc3C)cc2OC2CCN(C(=O)C3CCN(c4nccc(Sc5cnc(N6CCC(C)(CN)CC6)c(CO)n5)c4Cl)CC3)CC2)C(C)C)on1 (stereo partly drawn)"
  SHP2% degradation / %: 99.9
- molecule: "Cc1cn([C@H](C(=O)N2C[C@H](O)C[C@H]2C(=O)NCc2ccc(Cl)cc2OC2CCN(C(=O)C3CCN(c4nccc(Sc5cnc(N6CCC7(CC6)CO[C@@H](C)[C@H]7N)c(CO)n5)c4Cl)CC3)CC2)C(C)C)nn1"
  SHP2% degradation / %: 99.7
- molecule: "Cc1ncsc1-c1ccc(CNC(=O)[C@@H]2C[C@@H](O)CN2C(=O)[C@@H](NC(=O)C2(F)CC2)C(C)(C)C)c(OC2CCN(C(=O)C3CN(c4nccc(Sc5cnc(N6CCC(C)(CN)CC6)cn5)c4Cl)C3)CC2)c1"
  SHP2% degradation / %: 99.0
- molecule: "Cc1cn([C@H](C(=O)N2C[C@H](O)C[C@H]2C(=O)NCc2ccc(-c3scnc3C)cc2OC2CCN(C(=O)C3CCN(c4nccc(Sc5cnc(N6CCC(C)(N)CC6)c(CO)n5)c4Cl)CC3)CC2)C(C)C)nn1"
  SHP2% degradation / %: 99.4
- molecule: "Cc1cc(C(C(=O)N2C[C@H](O)C[C@H]2C(=O)NCc2ccc(-c3scnc3C)cc2OC2CCN(C(=O)C3CCN(c4nccc(Sc5cnc(N6CCC(C)(CN)CC6)cn5)c4Cl)CC3)CC2)C(C)C)on1 (stereo partly drawn) [Example 93]"
  SHP2% degradation / %: 99.9
